# key: entry, value: Activity
# Tested on: Mus musculus
# experimental protocol: Ex-vivo cardioprotective activity in BL6 mouse LAD ligation ischemic heart failure model assessed as left ventricular rate of pressure change in isolated heart at 10 uM, sc administered as infusion at 24 hrs post LAD ligation for 28 days (reference value: 6156 +/- 356 mmHg/s)
# Format: functional
readout kind: Activity (mmHg/s)

compound=CCOP(=O)(OCC)OC[C@@]12C[C@@H]1[C@@H](n1cnc3c(N)nc(Cl)nc31)[C@H](O)[C@@H]2O unit_abbrev=mmHg/s measured=6711
compound=Nc1nc(Cl)nc2c1ncn2[C@H]1[C@H](O)[C@H](O)[C@]2(CSP(=O)(O)O)C[C@H]12 unit_abbrev=mmHg/s measured=6553
compound=Nc1nc(I)nc2c1ncn2[C@H]1[C@H](O)[C@H](O)[C@]2(CP(=O)(O)O)C[C@H]12 unit_abbrev=mmHg/s measured=6581
compound="Nc1nc(Cl)nc2c1ncn2[C@@H]1C2CC2(COP(=O)(O)O)[C@@H](O)[C@H]1O (single isomer, unassigned)" unit_abbrev=mmHg/s measured=6508
compound=CCOP(=O)(C[C@@]12C[C@@H]1[C@@H](n1cnc3c(N)nc(Cl)nc31)[C@H](O)[C@@H]2O)OCC unit_abbrev=mmHg/s measured=5946
compound=CC(C)(C)OP(=O)(OC[C@@]12C[C@@H]1[C@@H](n1cnc3c(N)nc(Cl)nc31)[C@H](O)[C@@H]2O)OC(C)(C)C unit_abbrev=mmHg/s measured=6681
